All figures here come from the supplement of paper PMC3334620.

# TARGET_OR_TEST_SYSTEM: Stb5 (UniProt P38699)
# Sequence: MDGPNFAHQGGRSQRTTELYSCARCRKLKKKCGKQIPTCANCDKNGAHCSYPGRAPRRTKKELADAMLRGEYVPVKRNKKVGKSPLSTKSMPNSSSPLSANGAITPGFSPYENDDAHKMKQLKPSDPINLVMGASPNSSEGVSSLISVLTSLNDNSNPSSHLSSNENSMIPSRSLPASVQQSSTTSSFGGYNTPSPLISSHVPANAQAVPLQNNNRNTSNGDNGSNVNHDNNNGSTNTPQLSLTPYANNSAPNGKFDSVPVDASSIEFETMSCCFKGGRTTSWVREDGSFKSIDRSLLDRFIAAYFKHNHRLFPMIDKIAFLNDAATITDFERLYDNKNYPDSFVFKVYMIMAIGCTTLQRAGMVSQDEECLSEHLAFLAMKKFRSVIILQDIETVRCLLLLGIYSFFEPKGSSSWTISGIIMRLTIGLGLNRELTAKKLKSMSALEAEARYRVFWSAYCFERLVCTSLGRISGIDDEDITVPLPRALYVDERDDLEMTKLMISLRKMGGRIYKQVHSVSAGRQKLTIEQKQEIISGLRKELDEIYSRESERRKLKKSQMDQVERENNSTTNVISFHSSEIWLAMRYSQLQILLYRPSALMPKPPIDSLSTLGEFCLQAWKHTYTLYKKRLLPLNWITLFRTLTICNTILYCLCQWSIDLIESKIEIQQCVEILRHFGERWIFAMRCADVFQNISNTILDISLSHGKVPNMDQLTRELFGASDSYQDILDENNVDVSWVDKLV
# METHOD_NOTES: PBM E-score (8-mer binding enrichment) (E-score (-0.5 to 0.5)); higher = stronger / more preferred TF binding
# CONDITION_LABEL: protein concentration: 200 nM; construct: GST-full length
In all, about 33,000 sequences were measured (“E-score (-0.5 to 0.5)”: median about -0.054, highest 2% from about 0.35 on). The full list was thinned out, with the highest values kept by preference.
Answer n if PBM E-score is under -0.2, and y if it is -0.2 or more.

Asked: Is PBM E-score for "ACCCCCGC" at or above -0.2?
Given back: y

Asked: Is PBM E-score for "AATCAATT" at or above -0.2?
Given back: y

Asked: Is PBM E-score for "ACCGCTAA" at or above -0.2?
Given back: y

Asked: Is PBM E-score for "ACACCCGT" at or above -0.2?
Given back: y

Asked: Is PBM E-score for "AACCCCGT" at or above -0.2?
Given back: y

Asked: Is PBM E-score for "CCCCCCGC" at or above -0.2?
Given back: y

Asked: Is PBM E-score for "GCCGCTAC" at or above -0.2?
Given back: y

Asked: Is PBM E-score for "ACCCCCGT" at or above -0.2?
Given back: y

Asked: Is PBM E-score for "CATTGAGC" at or above -0.2?
Given back: y

Asked: Is PBM E-score for "TACGCAGA" at or above -0.2?
Given back: y

Asked: Is PBM E-score for "ACCGCTGA" at or above -0.2?
Given back: y

Asked: Is PBM E-score for "ACCCTAGG" at or above -0.2?
Given back: y

Asked: Is PBM E-score for "ACCCCCCC" at or above -0.2?
Given back: n

Asked: Is PBM E-score for "ACCCCCCT" at or above -0.2?
Given back: n

Asked: Is PBM E-score for "AACCCCCT" at or above -0.2?
Given back: n

Asked: Is PBM E-score for "GATATCCA" at or above -0.2?
Given back: y

Asked: Is PBM E-score for "AAAGTCTC" at or above -0.2?
Given back: y

Asked: Is PBM E-score for "ACTCGACT" at or above -0.2?
Given back: n

Asked: Is PBM E-score for "ACCGCTCG" at or above -0.2?
Given back: y

Asked: Is PBM E-score for "ACCGCTAC" at or above -0.2?
Given back: y

Asked: Is PBM E-score for "ATGCCTTA" at or above -0.2?
Given back: n

Asked: Is PBM E-score for "CCCGCTGC" at or above -0.2?
Given back: y
